Where do these numbers come from? They come from paper PMC7993387.

# protocol: Single-dose pharmacokinetics in SD rats
# Type: in vivo
# conditionNotes: Sprague-Dawley, rat, plasma, im, alone (GC376 111 mg/kg; GS441524 67 mg/kg)
observable: AUC(0-t) (µg·h/mL)
Answer format: numeric, µg·h/mL implied, no suffix.

compound="CC(C)CC(NC(=O)OCc1ccccc1)C(=O)NC(CC1CCNC1=O)C(O)S(=O)(=O)O (centres unmarked)" observable=AUC(0-t) reportedvalue=92.1

Now consider the entry below.
The value of AUC(0-t) measured for the compound N#C[C@@]1(c2ccc3c(N)ncnn23)O[C@H](CO)[C@@H](O)[C@H]1O turned out to be 183
